Tested on: CCRIS mutagenicity, Ames/micronucleus/aberration tests
procedureText: CCRIS mutagenicity studies
experimentalParameters: Test System: AMES SALMONELLA TYPHIMURIUM; Strain/Indicator: TA1538; Metabolic Activation: NONE; Method: STANDARD PLATE
The source made the active and inactive calls. No rule for the calls is given here.
# valid calls are Yes (active), No (inactive); nothing else

| molecule | studyTarget | categoryLabel |
| --- | --- | --- |
| COCC1O[C@@H](O[C@@H]2C(COC)OC(OC)C(OC)C2OC)C(OC)C(OC)C1OC (some centres undefined) | CCRIS mutagenicity, Ames/micronucleus/aberration tests | No |
| [O]=[Cr](=[O])([OH])[O][Cr](=[O])(=[O])[OH] | CCRIS mutagenicity, Ames/micronucleus/aberration tests | No |

Enquiry: # outcome recorded in this test, key = `O=C(O)c1cc(=O)c2c(OCC(O)COc3cccc4oc(C(=O)O)cc(=O)c34)cccc2o1`
Return: No

Enquiry: # outcome recorded in this test, key = `O=C1NC(=O)C(c2ccccc2)(c2ccccc2)N1`
Return: No

Enquiry: # outcome recorded in this test, key = CC(C)Cc1ccc(C(C)C(=O)O)cc1 (centres undefined)
Return: No

Enquiry: # outcome recorded in this test, key = `CC(=O)c1ccccn1`
Return: No

Enquiry: # outcome recorded in this test, key = `CCOC(=O)CC(=O)CCl`
Return: No

Enquiry: # outcome recorded in this test, key = `CC(C)c1cc(N)c([N+](=O)[O-])cc1N`
Return: No

Enquiry: # outcome recorded in this test, key = `CN(C)c1ccc(C(=O)c2ccc(N(C)C)cc2)cc1`
Return: No

====

Tested on: CCRIS mutagenicity, Ames/micronucleus/aberration tests
procedureText: CCRIS mutagenicity studies
experimentalParameters: Test System: AMES SALMONELLA TYPHIMURIUM; Strain/Indicator: TA1537; Metabolic Activation: NONE; Method: PREINCUBATION
Activity calls are given as the source filed them. No rule for the calls is given here.
# valid calls are Y (active), N (inactive); nothing else

Enquiry: # outcome recorded in this test, key = `NCCNCCNCCN`
Return: Y

Enquiry: # outcome recorded in this test, key = `CCCCNCC`
Return: N

Enquiry: # outcome recorded in this test, key = CC(Br)C(=O)O (stereo not drawn)
Return: N

Enquiry: # outcome recorded in this test, key = `CC1(C)C(=O)N(Cl)C(=O)N1Cl`
Return: N

Enquiry: # outcome recorded in this test, key = `C=CC(=O)OCC(CO)(COC(=O)C=C)COC(=O)C=C`
Return: N

Enquiry: # outcome recorded in this test, key = C=CCOCC1CO1 (stereo not drawn)
Return: N

Enquiry: # outcome recorded in this test, key = `NS(=O)(=O)c1cc(C(=O)O)c(NCc2ccco2)cc1Cl`
Return: N

Enquiry: # outcome recorded in this test, key = `CCCCCCCCCCCCCCCCCCCC`
Return: N

====

Tested on: CCRIS mutagenicity, Ames/micronucleus/aberration tests
procedureText: CCRIS mutagenicity studies
experimentalParameters: Test System: MOUSE LYMPHOMA; Strain/Indicator: L5178Y (TK+/TK-); Metabolic Activation: RAT, LIVER, S-9, AROCLOR 1254; Method: SUSPENSION/PLATE
Activity calls are given as the source filed them. How the calls were made is not given here.
# valid calls are true (1) = active, false (0) = inactive; nothing else

Study these solved cases before continuing.
| givenSmiles | categoryLabel |
| --- | --- |
| CC(=O)c1ccccn1 | true (1) |
| O=S(=O)(O)c1cc(S(=O)(=O)O)c2c(N=Nc3ccccc3)c(O)ccc2c1 | true (1) |

Enquiry: # outcome recorded in this test, key = `FC(F)(F)I`
Return: false (0)

Entry source: PubChem BioAssay AID1259407
